- ASSAY_SYSTEM: thioredoxin reductase (TrxR) (Homo sapiens)
- Sequence (Q16881 whole entry): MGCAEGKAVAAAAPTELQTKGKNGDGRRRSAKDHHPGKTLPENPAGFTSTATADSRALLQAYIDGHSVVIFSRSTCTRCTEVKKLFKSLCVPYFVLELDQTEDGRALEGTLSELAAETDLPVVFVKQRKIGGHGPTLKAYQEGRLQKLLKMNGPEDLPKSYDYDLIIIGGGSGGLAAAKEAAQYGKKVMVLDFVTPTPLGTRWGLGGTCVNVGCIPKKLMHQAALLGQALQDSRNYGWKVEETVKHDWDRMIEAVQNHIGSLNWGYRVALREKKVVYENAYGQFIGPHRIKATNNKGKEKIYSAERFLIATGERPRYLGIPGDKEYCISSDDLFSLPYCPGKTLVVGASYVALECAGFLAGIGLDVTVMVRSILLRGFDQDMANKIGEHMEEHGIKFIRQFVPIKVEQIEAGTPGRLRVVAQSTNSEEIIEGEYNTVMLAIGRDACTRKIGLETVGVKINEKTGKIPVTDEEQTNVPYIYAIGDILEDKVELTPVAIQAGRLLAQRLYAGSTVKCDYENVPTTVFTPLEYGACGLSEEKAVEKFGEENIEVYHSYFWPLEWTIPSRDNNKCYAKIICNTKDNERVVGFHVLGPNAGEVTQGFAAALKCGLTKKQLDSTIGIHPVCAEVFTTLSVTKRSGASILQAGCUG
- REPORTED_CONDITIONS: read-out: Inhibitory activity against thioredoxin reductase (IC50) TrxR; cellular total protein, NADPH, DTNB, 405 nm
ENDPOINT: pIC50
# pIC50: negative log10 of molar concentration; output just the value

Ask: Please give the documented pIC50 of O=c1c2ccccc2[se]n1CCCCn1[se]c2ccccc2c1=O
Reply: 5.94

====

The entries below are paired with their reported inhibition in vivo at 20 mg/kg.
- System: human glioma cell U87
- PROTOCOL_TEXT: Tumor volume inhibition rate, i.v. dosing
- Format: in vivo, Balb/c nude mice
- REPORTED_CONDITIONS: Mus musculus, iv, 288 h, Day 12, 20 mg·kg^−1, i.v., TMZ 10 mg·kg^−1, i.v.
Number only, in %; omit the unit.

These solved cases illustrate the format of a correct answer.
{"columns": ["MOLECULE", "UNIT_ABBREV", "inhibition in vivo at 20 mg/kg"],
 "data": [
  ["Cc1ccc2c(=O)n(CCNC(=O)c3ncn4c(=O)n(C)nnc34)[se]c2c1", "%", 87.2],
  ["Cn1nnc2c(C(=O)NCCn3[se]c4ccc(Cl)cc4c3=O)ncn2c1=O", "%", 74.5],
  ["Cn1nnc2c(C(=O)NCCn3[se]c4ccc(F)cc4c3=O)ncn2c1=O", "%", 82.9]
]}

Ask: Please give the documented inhibition in vivo at 20 mg/kg of Cc1ccc2[se]n(CCNC(=O)c3ncn4c(=O)n(C)nnc34)c(=O)c2c1
Reply: 90.1

Ask: Please give the documented inhibition in vivo at 20 mg/kg of Cn1nnc2c(C(=O)NCCn3[se]c4cc(F)ccc4c3=O)ncn2c1=O
Reply: 68.4

Ask: Please give the documented inhibition in vivo at 20 mg/kg of Cn1nnc2c(C(N)=O)ncn2c1=O [TMZ, temozolomide, reference compound]
Reply: 38

Ask: Please give the documented inhibition in vivo at 20 mg/kg of Cn1nnc2c(C(=O)NCCn3[se]c4ccc(Br)cc4c3=O)ncn2c1=O
Reply: 36.8

Ask: Please give the documented inhibition in vivo at 20 mg/kg of Cn1nnc2c(C(=O)NCCn3[se]c4ccccc4c3=O)ncn2c1=O
Reply: 69.8

Ask: Please give the documented inhibition in vivo at 20 mg/kg of COc1ccc2[se]n(CCNC(=O)c3ncn4c(=O)n(C)nnc34)c(=O)c2c1
Reply: 37.5

Each recorded value in this set is attributed to patent US20230167120A1.
